# System under test: PRMT5 (Homo sapiens, UniProt O14744)
# Construct: purchased Viva (custom protein)
# Sequence (O14744 whole entry): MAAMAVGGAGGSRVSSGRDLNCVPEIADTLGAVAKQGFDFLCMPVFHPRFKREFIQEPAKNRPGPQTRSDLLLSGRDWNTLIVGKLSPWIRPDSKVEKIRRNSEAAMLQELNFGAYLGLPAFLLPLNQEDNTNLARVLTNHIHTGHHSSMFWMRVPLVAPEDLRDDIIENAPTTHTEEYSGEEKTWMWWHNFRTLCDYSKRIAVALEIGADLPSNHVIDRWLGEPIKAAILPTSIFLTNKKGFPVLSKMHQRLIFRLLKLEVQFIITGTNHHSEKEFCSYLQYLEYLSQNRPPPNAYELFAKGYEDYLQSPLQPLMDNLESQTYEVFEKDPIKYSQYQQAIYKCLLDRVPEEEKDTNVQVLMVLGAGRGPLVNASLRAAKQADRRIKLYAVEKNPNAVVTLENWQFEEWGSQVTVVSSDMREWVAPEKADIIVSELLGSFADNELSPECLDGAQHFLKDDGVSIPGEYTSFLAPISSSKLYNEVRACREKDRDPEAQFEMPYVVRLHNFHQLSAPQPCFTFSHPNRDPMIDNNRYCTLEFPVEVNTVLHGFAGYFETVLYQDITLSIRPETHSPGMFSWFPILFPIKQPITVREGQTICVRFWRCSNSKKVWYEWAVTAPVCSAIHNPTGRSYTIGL
# Sequence (Q9BQA1 whole entry partner): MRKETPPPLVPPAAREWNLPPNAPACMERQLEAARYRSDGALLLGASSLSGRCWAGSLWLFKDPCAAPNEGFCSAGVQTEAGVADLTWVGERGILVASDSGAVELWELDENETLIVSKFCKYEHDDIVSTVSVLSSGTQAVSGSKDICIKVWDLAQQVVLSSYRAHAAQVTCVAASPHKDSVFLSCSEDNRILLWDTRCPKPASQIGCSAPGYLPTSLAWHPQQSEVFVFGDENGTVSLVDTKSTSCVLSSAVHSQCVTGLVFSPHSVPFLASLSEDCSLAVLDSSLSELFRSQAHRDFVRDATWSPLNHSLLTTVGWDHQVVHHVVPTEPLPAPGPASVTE
# Protocol description: PRMT5 IC50 assay with no cofactor
# Type: biochemical
# Condition set: read-out: No Co-factor IC50
IC50 for assorted molecules

Record excerpt, results attached:
molecule="O=C(NC[C@H](O)CN1CCc2cc(OCc3cnco3)ccc2C1)c1cc(NC2COC2)nc(N2CCN(C(=O)C3CC3)CC2)n1 [Compound 290]" reported_result="0.5 to 5 µM"
molecule="COCCN(C)c1cc(C(=O)NC[C@H](O)CN2CCc3cc(OCc4cnco4)ccc3C2)cc(NC2CCC2)n1 [Compound 369]" reported_result="0.5 to 5 µM"
molecule="CC(C)Cc1cc(C(=O)NC[C@H](O)CN2CCc3cc(OCc4cnco4)ccc3C2)cc(NC2CCC2)n1 [Compound 307]" reported_result="≥ 5 µM"
molecule="CC(=O)N1CCC(Nc2cc(C(=O)NC[C@H](O)CN3CCc4cc(OCc5cn[nH]c5)ccc4C3)ncn2)CC1 [Compound 201]" reported_result="0.5 to 5 µM"
molecule="Cc1c(OCc2cnco2)ccc2c1CCN(C[C@@H](O)CNC(=O)c1ccnc(NC3CCC3)c1)C2 [Compound 179]" reported_result="≥ 5 µM"

// next item, IC50 requested
Exercise: Quick check: IC50 of CC(=O)N1CCC(Nc2cc(C(=O)NC[C@H](O)CN3CCc4c(ccc(OCc5conc5C)c4C)C3)ncn2)CC1 [Compound 264] ?
Key: ≥ 5 µM

###

# System under test: PRMT5 (Homo sapiens)
# Construct: purchased Viva (custom protein)
# Protocol description: PRMT5 IC50 assay in the presence of MTA as cofactor
# Type: biochemical
# Condition set: PRMT5, MTA as cofactor
pIC50: −log10 of the molar value.
# pIC50 per record follows

molecule="O=C(NC[C@H](O)CN1CCc2c(ccc(OCc3cnco3)c2Br)C1)c1cc(NC2CCC2)ncn1 [Compound 361]" system_under_test="PRMT5 (Homo sapiens)" reported_result="5.30 to 6.30"
molecule="CC(=O)N1CCC(Nc2cc(C(=O)NC[C@H](O)CN3CCc4c(ccc(OCc5ccnn5C)c4C)C3)ncn2)CC1 [Compound 203]" system_under_test="PRMT5 (Homo sapiens)" reported_result="5.30 to 6.30"

Exercise: Fill blank: measured pIC50 of the molecule O[C@@H](CNc1nccc(-c2sccc2Br)n1)CN1CCc2cc(OCc3cnco3)ccc2C1 [Compound 331] is ____.
Key: 5.30 to 6.30

Exercise: Report pIC50 for Cc1ncoc1COc1ccc2c(c1)[C@@H](O)CN(C[C@@H](O)CNC(=O)c1ccnc(NC3CCC3)c1)C2 (single isomer, unassigned) [Compound 505] please.
Key: 5.30 to 6.30

Exercise: Quick one: pIC50 of O=C(NC[C@H](O)CN1CCc2cc(OCc3cnco3)ccc2C1)c1cc(NC2COC2)nc(N2CCOCC2)n1 [Compound 304] ?
Key: 6.30 to 7.30

###

# System under test: PRMT5 (Homo sapiens)
# Construct: purchased Viva (custom protein)
# Protocol description: PRMT5 IC50 assay in the presence of MTA as cofactor
# Assay type: biochemical
# Condition set: PRMT5, MTA as cofactor
# From the text: Table 1a indicates IC50 values (μM) against PRMT5 for exemplary compounds in the presence of SAM as cofactor, with no cofactor and with MTA as cofactor, respectively (columns 3-5). […] The Ki values can be calculated from the IC50 values as described in the Examples section. As detailed in the Examples section, for the assay performed in the presence of SAM, IC50=Ki×1.5 (Ki=IC50/1.5). For the assay performed in the presence of MTA, IC50=Ki×13.5 (Ki=IC50/13.5). […]
# IC50 annotations

molecular_string=Cc1c(OCc2ccnn2C)ccc2c1CCN(C[C@@H](O)CNC(=O)c1ccnc(NC3CCCC3)c1)C2 reported_result="0.5 to 5 µM"

Exercise: Record request: IC50 value, item "O=C(NC[C@H](O)CN1CCc2c(ccc(OCc3cnco3)c2Cl)C1)c1cc(NC2COC2)nc(N2CCOCC2)n1"
Key: 0.5 to 5 µM

Exercise: IC50 for "CC(=O)N1CCN(c2cc(C(=O)NC[C@H](O)CN3CCc4cc(OCc5ocnc5C)c(F)cc4C3)cc(NC3CCC3)n2)CC1" ?
Key: 0.05 to 0.5 µM

Exercise: Item "CC(=O)N1CCC(Nc2ccnc(C(=O)NC[C@H](O)CN3CCc4cc(OCc5cnco5)ccc4C3)c2)CC1" has what recorded IC50?
Key: 0.05 to 0.5 µM

Numbers sourced from patent US11986471B2.
